Listed molecules paired with reported T1/2 Human Plasma
assay: Stability in human plasma, degradation to paclitaxel; assay type: in vitro ADME; settings: human plasma (heparin), 37° C.; time in which 50% of the analog is degraded to paclitaxel
Please reply with the bare figure in h and do not write the unit itself.

CC(=O)O[C@H]1C(=O)[C@@]2(C)[C@H]([C@H](OC(=O)c3ccccc3)[C@]3(O)C[C@H](OC(=O)[C@H](OC(=O)CC(O)C(=O)[O-])[C@@H](NC(=O)c4ccccc4)c4ccccc4)C(C)=C1C3(C)C)[C@]1(OC(C)=O)CO[C@@H]1C[C@@H]2O.[Na+] (stereo partly shown) [Compound 6, Sodium salt of 2′-malylpaclitaxel] = 4

### Prompt Specify measured T1/2 Human Plasma for CC(=O)O[C@H]1C(=O)[C@@]2(C)[C@H]([C@H](OC(=O)c3ccccc3)[C@]3(O)C[C@H](OC(=O)[C@H](OC(=O)CC(O)C(=O)O)[C@@H](NC(=O)c4ccccc4)c4ccccc4)C(C)=C1C3(C)C)[C@]1(OC(C)=O)CO[C@@H]1C[C@@H]2O (stereo partly shown) [Compound 5, 2′-Malylpaclitaxel] .
### Response 20
